Source listed as patent US10717716B2.

Molecular target: human recombinant HDAC6 (Homo sapiens, UniProt Q9UBN7)
Construct: purchased Calbiochem 382180
Sequence (Q9UBN7 1-1215): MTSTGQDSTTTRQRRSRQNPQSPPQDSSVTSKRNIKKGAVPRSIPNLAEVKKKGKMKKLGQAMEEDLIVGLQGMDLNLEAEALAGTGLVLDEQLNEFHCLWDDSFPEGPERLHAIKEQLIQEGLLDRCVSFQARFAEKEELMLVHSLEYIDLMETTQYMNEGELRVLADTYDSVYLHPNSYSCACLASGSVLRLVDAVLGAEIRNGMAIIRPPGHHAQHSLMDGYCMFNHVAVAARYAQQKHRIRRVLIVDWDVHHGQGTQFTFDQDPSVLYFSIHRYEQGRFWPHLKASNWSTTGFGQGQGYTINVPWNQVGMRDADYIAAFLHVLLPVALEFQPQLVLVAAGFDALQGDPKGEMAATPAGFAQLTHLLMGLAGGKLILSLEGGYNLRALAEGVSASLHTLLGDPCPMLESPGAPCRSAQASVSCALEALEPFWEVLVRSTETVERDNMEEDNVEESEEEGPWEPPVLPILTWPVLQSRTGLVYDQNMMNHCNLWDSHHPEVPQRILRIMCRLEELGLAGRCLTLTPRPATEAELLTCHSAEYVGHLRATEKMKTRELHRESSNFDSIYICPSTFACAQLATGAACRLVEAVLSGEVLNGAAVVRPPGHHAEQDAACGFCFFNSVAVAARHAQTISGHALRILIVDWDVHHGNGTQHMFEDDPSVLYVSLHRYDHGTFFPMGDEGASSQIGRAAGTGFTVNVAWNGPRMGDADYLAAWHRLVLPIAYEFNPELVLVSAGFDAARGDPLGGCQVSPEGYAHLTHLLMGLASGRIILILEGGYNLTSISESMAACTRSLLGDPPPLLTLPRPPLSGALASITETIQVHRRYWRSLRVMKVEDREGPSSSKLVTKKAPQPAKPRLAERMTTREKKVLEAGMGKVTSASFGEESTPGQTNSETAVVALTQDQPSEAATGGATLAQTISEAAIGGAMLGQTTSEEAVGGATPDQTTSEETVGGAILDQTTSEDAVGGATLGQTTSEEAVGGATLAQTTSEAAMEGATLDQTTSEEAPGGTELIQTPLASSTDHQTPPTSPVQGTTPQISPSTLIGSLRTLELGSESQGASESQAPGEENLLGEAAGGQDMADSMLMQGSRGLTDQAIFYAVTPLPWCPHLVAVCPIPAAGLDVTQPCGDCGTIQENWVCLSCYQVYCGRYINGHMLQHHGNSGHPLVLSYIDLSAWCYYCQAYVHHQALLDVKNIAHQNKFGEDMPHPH
Test: HDAC6 enzyme activity inhibition assay (HDAC Fluorimetric Drug Discovery Kit)
Assay type: biochemical
Conditions: human recombinant HDAC6, same protocol as HDAC1; read-out: HDAC6
Experimental: In order to examine the HDAC6 selectivity of the compounds of formula I of the present invention by HDAC1 and HDAC6 enzymatic activity inhibition assays, an experiment was performed using a conventional substance as a control. HDAC enzyme activity was measured using a HDAC Fluorimetric Drug Discovery Kit (BML-AK511, 516, Enzo Life Science). […] Based on the resulting values, each IC5, value was calculated using GraphPad Prism4.0 program.
Returns the class for an entry based on its IC50. Class ranges: bottom: < 100 nM; middle: ≥ 100 nM and < 400 nM; top: ≥ 400 nM

Class for CN1CCN(C(=O)N(Cc2ccc(-c3nnc(C(F)(F)F)o3)cc2F)c2ccc(F)c(Cl)c2)CC1 ? middle

Next compound up: O=C(NCCN1CCN(c2ccccn2)CC1)N(Cc1ccc(-c2nnc(C(F)F)o2)cc1F)c1ccccc1 middle

Now give it for O=C(NC1CCCCC1)N(Cc1ccc(-c2nnc(C(F)(F)F)o2)cc1)c1ccccc1 too. top

// query: O=C(N1CCOCC1)N(Cc1ccncc1)Cc1ccc(-c2nnc(C(F)(F)F)o2)cc1 top

What about this compound? O=C(N1CC2(COC2)C1)N(Cc1ccc(-c2nnc(C(F)F)o2)cc1F)c1ccc(F)c(Cl)c1 bottom

Next: Cn1ccc2cc(-c3ccc(N(Cc4ccc(-c5nnc(C(F)(F)F)o5)cc4F)C(=O)N4CCS(=O)(=O)CC4)cc3)ccc21 top

Param item: O=C(NCCN1CCC[C@@H]1C(F)(F)F)N(Cc1ccc(-c2nnc(C(F)F)o2)cc1F)c1ccccc1 middle

Proceed to O=C(CN1CCN(CCNC(=O)N(Cc2ccc(-c3nnc(C(F)F)o3)cc2F)c2ccccc2)CC1)N1CCOCC1 bottom

One more compound: O=C(N1CCOCC1)N(Cc1ccc(-c2nnc(C(F)F)o2)cc1F)c1ccc(Cl)cc1 middle

What would you report for O=C(C1CC1)N1CCN(CCNC(=O)N(Cc2ccc(-c3nnc(C(F)F)o3)cc2F)c2ccccc2)CC1 ? bottom

What would you report for O=C(NCCN1CC(F)(F)C1)N(Cc1ccc(-c2nnc(C(F)F)o2)cc1F)c1ccccc1 ? middle

Try O=C(N1CCOCC1)N(CCc1ccccc1)Cc1ccc(-c2nnc(C(F)F)o2)cc1F next. middle

Another: CN1CCN(C(=O)N(Cc2ccc(-c3nnc(C(F)F)o3)cc2F)c2ccc(F)c(Cl)c2)CC1 bottom

CN(C)[C@@H]1CCN(C(=O)N(Cc2ccc(-c3nnc(C(F)F)o3)cc2F)c2ccc3cnn(C)c3c2)C1 , same question. bottom

Please do the same for CCN1C[C@@H](C)N(Cc2ccc(N(Cc3ccc(-c4nnc(C(F)F)o4)cc3F)C(=O)N3CCS(=O)(=O)CC3)cc2)[C@@H](C)C1 as well. top

Cool, now O=C(NC1CCCC1)N(Cc1ccc(-c2nnc(C(F)(F)F)o2)cc1)c1ccccc1 top

Please do the same for O=C(N1CCS(=O)(=O)CC1)N(Cc1ccc(-c2nnc(C(F)F)o2)nc1)c1ccc(F)c(Cl)c1 as well. top

Please answer likewise for O=C(N1CC2(COC2)C1)N(Cc1ccc(-c2nnc(C(F)F)o2)cc1F)c1cccc(F)c1 bottom

Would you mind doing CS(=O)(=O)c1ccc(N(Cc2ccc(-c3nnc(C(F)(F)F)o3)cc2)C(=O)N2CCOCC2)cc1 as well? middle

Entry to check: COc1ccccc1N(Cc1ccc(-c2nnc(C(F)F)o2)cc1)C(=O)N1CCS(=O)(=O)CC1 middle

What about CCN1CCN(CCCOc2ccc(N(Cc3ccc(-c4nnc(C(F)F)o4)cc3F)C(=O)N3CCS(=O)(=O)CC3)cc2)CC1 ? middle

Queued: COc1cccc(N(Cc2ccc(-c3nnc(C(F)F)o3)cc2F)C(=O)N2CCN(C3COC3)CC2)c1 middle

Follow-up entry: CCN1CCN(C(=O)N(Cc2ccc(-c3nnc(C(F)(F)F)o3)cn2)c2cccc(OC)c2)CC1 middle

Follow-up item: O=C(N1CCS(=O)(=O)CC1)N(Cc1ccc(-c2nnc(C(F)F)o2)cc1F)c1ccc(-c2cccnc2)cc1 bottom

CN1CCN(C(=O)N(Cc2ccc(-c3nnc(C(F)F)o3)cc2F)c2cccc(-c3ccoc3)c2)CC1 ? bottom

And then CCN(Cc1ccc(-c2nnc(C(F)(F)F)o2)cc1)C(=O)N1CCS(=O)(=O)CC1 , what is it? top

# iterate: O=C(N1CCCC1)N(Cc1ccc(-c2nnc(C(F)(F)F)o2)cc1)c1ccccc1 top

* * *

Biological target: human recombinant HDAC6 (Homo sapiens)
Construct: purchased Calbiochem 382180
Sequence (Q9UBN7 1-1215): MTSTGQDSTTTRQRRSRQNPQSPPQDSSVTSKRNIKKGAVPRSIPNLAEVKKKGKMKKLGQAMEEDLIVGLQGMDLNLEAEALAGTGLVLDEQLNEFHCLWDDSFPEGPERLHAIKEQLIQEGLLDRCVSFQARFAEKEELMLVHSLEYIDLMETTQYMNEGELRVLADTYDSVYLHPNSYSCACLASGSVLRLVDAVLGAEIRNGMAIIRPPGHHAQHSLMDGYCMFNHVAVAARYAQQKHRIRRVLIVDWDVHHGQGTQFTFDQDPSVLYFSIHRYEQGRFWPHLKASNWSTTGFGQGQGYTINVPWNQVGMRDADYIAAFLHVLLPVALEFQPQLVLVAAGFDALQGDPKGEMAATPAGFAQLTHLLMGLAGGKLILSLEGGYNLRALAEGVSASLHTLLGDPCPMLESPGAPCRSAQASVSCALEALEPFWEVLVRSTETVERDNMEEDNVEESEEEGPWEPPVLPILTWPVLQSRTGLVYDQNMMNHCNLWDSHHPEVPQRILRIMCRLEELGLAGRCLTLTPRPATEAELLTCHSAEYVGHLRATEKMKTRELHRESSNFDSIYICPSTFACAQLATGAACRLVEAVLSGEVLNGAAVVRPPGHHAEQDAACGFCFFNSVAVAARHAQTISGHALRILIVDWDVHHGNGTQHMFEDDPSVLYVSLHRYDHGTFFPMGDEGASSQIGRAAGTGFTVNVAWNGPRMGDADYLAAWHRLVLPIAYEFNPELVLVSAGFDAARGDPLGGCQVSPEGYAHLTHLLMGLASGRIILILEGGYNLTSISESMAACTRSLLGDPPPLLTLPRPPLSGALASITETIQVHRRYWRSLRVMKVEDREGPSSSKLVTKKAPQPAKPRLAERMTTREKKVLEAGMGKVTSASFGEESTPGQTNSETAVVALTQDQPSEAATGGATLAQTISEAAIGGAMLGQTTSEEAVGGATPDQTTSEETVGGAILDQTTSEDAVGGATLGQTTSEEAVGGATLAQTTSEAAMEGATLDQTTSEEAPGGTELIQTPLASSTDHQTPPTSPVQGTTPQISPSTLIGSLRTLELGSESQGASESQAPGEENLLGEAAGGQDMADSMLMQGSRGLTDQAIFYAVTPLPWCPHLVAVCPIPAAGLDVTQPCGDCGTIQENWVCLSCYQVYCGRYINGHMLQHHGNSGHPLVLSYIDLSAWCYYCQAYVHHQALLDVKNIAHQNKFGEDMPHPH
Experiment: HDAC6 enzyme activity inhibition assay (HDAC Fluorimetric Drug Discovery Kit)
Assay type: biochemical
Conditions: HDAC6 over HDAC1
Readout Name: HDAC6 selectivity (fold)
Your answer is read as fold, so omit the unit and give the number.

Could you tell me which HDAC6 selectivity (fold) is on file for O=C(NCCN1CCC(F)CC1)N(Cc1ccc(-c2nnc(C(F)F)o2)cc1F)c1ccccc1 ? 100

Also O=C(N1CCN(C2COC2)CC1)N(Cc1ccc(-c2nnc(C(F)F)o2)cc1F)c1ccccc1 , if possible. 113

Entry O=C(N1CCS(=O)(=O)CC1)N(Cc1ccc(-c2nnc(C(F)F)o2)cc1)c1ccc(-c2ccccc2)cc1 please 120

Can you check Cn1ncc2ccc(N(Cc3ccc(-c4nnc(C(F)F)o4)cc3F)C(=O)N3CCS(=O)(=O)CC3)cc21 next? 476
